Provide the reported Time of each item.
test system: Rattus norvegicus; assay: Cardiotoxicity in Wistar rat assessed as effect on PQ interval time at 5 mg/kg, iv measured after 1 min (reference value: 52 to 57 ms); type: toxicity, organism-based; details: in vivo

compound: COc1ccccc1OCCNCC(O)COc1cccc2c(=O)c3ccccc3oc12.Cl (racemic)
Time: 56 ms
--
compound: Cl.O=c1c2ccccc2oc2c(OCC(O)CN3CCN(c4ccccn4)CC3)cccc12 (racemic)
Time: 58.2 ms
--
compound: COc1ccccc1CNCC(O)COc1cccc2c(=O)c3ccccc3oc12.Cl (racemic)
Time: 60.7 ms
--
compound: COc1ccccc1CCNCC(O)COc1cccc2c(=O)c3ccccc3oc12.Cl (racemic)
Time: 52 ms
--
compound: Cc1cccc2c(=O)c3ccc(OCC(O)CNC(C)(C)C)cc3oc12.Cl (racemic)
Time: 60.5 ms

Could I get Time for every one of these entries?
1. Cl.O=c1c2ccccc2oc2cc(OCC(O)CN3CCN(c4ccccn4)CC3)ccc12 (racemic)
2. COc1ccc(CCNCC(O)COc2cccc3c(=O)c4ccccc4oc23)cc1OC.Cl (racemic)

Given back:
1: 55.3 ms; 2: 62.7 ms

---

test system: Rattus norvegicus; test: Hypotensive activity in normotensive Wistar rat assessed as diastolic blood pressure at 1 mg/kg, iv measured after 60 mins (reference value: 88.4 to 122.7 mmHg); assay type: functional
Provide the reported Activity of each item.
One number for each entry, in mmHg.

compound: COc1ccccc1OCCNCC(O)COc1cccc2c(=O)c3ccccc3oc12.Cl (racemic)
Activity [mmHg]: 75.6
--
compound: CC(C)(C)NCC(O)COc1cccc2c(=O)c3ccccc3oc12.Cl (racemic)
Activity [mmHg]: 96.7
--
compound: Cl.O=c1c2ccccc2oc2c(OCC(O)CN3CCN(c4ccccn4)CC3)cccc12 (racemic)
Activity [mmHg]: 106.7
--
compound: COc1ccccc1CCNCC(O)COc1cccc2c(=O)c3ccccc3oc12.Cl (racemic)
Activity [mmHg]: 101.2

Asked: Which Activity reading was recorded for the compound Cl.O=c1c2ccccc2oc2cc(OCC(O)CN3CCN(c4ccccn4)CC3)ccc12 (racemic) ?
Given back: 94.2

---

system: Rattus norvegicus; experiment: Hypotensive activity in normotensive Wistar rat assessed as diastolic blood pressure at 1 mg/kg, iv measured after 10 mins (reference value: 88.4 to 122.7 mmHg); format: functional
Mark Met only for Activity values smaller than 100 mmHg; exact matches and larger values are Not met.

Asked: Bench note: check whether COc1ccccc1CCNCC(O)COc1cccc2c(=O)c3ccccc3oc12.Cl (racemic) shows Activity below 100 mmHg
Given back: Not met

Asked: Bench note: check whether COc1ccccc1OCCNCC(O)COc1cccc2c(=O)c3ccccc3oc12.Cl (racemic) shows Activity below 100 mmHg
Given back: Met

Asked: Bench note: check whether Cl.O=c1c2ccccc2oc2cc(OCC(O)CN3CCN(c4ccccn4)CC3)ccc12 (racemic) shows Activity below 100 mmHg
Given back: Not met

Asked: Bench note: check whether Cl.O=c1c2ccccc2oc2c(OCC(O)CN3CCN(c4ccccn4)CC3)cccc12 (racemic) shows Activity below 100 mmHg
Given back: Not met

Asked: Bench note: check whether CC(C)(C)NCC(O)COc1cccc2c(=O)c3ccccc3oc12.Cl (racemic) shows Activity below 100 mmHg
Given back: Not met

---

Provide the reported Time of each item.
test system: Rattus norvegicus; test: Cardiotoxicity in Wistar rat assessed as effect on QT interval time at 5 mg/kg, iv measured after 5 mins (reference value: 57.7 to 61 ms); type: toxicity, organism-based; settings: in vivo
Numbers only, in ms.

compound: Cl.O=c1c2ccccc2oc2c(OCC(O)CN3CCN(c4ccccn4)CC3)cccc12 (racemic)
Time (ms): 59.5

Could I get Time for every one of these entries?
1. COc1ccc(CCNCC(O)COc2cccc3c(=O)c4ccccc4oc23)cc1OC.Cl (racemic)
2. COc1ccccc1OCCNCC(O)COc1cccc2c(=O)c3ccccc3oc12.Cl (racemic)
3. Cc1cccc2c(=O)c3ccc(OCC(O)CNC(C)(C)C)cc3oc12.Cl (racemic)
4. COc1ccccc1CNCC(O)COc1cccc2c(=O)c3ccccc3oc12.Cl (racemic)
5. COc1ccccc1CCNCC(O)COc1cccc2c(=O)c3ccccc3oc12.Cl (racemic)
6. Cl.O=c1c2ccccc2oc2cc(OCC(O)CN3CCN(c4ccccn4)CC3)ccc12 (racemic)

Given back:
66.7
67.3
59.5
64.7
61
58.3

---

Provide the reported Activity of each item.
tested on: Rattus norvegicus; test: Cardiotoxicity in Wistar rat assessed as effect on heart rate at 5 mg/kg, iv measured after 15 mins (reference value: 323 to 374.5 bpm); type: toxicity, organism-based; conditions: in vivo, 0.25 h
Numbers only, in bpm.

compound: Cl.O=c1c2ccccc2oc2c(OCC(O)CN3CCN(c4ccccn4)CC3)cccc12 (racemic)
readoutValue: 343

Could I get Activity for every one of these entries?
1. Cl.O=c1c2ccccc2oc2cc(OCC(O)CN3CCN(c4ccccn4)CC3)ccc12 (racemic)
2. Cc1cccc2c(=O)c3ccc(OCC(O)CNC(C)(C)C)cc3oc12.Cl (racemic)
3. COc1ccccc1CCNCC(O)COc1cccc2c(=O)c3ccccc3oc12.Cl (racemic)
4. COc1ccc(CCNCC(O)COc2cccc3c(=O)c4ccccc4oc23)cc1OC.Cl (racemic)
5. COc1ccccc1OCCNCC(O)COc1cccc2c(=O)c3ccccc3oc12.Cl (racemic)
6. COc1ccccc1CNCC(O)COc1cccc2c(=O)c3ccccc3oc12.Cl (racemic)

Given back:
[295.3, 339.2, 390.5, 265.7, 308.7, 265]

---

Provide the reported Time of each item.
system: Rattus norvegicus; assay: Cardiotoxicity in Wistar rat assessed as effect on PQ interval time at 5 mg/kg, iv measured after 15 mins (reference value: 52 to 57 ms); format: toxicity, organism-based; conditions: in vivo, 0.25 h
Give bare numbers, in ms.

compound: COc1ccccc1CCNCC(O)COc1cccc2c(=O)c3ccccc3oc12.Cl (racemic)
unitAbbrev: ms
readoutValue: 51
//
compound: Cl.O=c1c2ccccc2oc2cc(OCC(O)CN3CCN(c4ccccn4)CC3)ccc12 (racemic)
unitAbbrev: ms
readoutValue: 56

Could I get Time for every one of these entries?
1. Cl.O=c1c2ccccc2oc2c(OCC(O)CN3CCN(c4ccccn4)CC3)cccc12 (racemic)
2. COc1ccccc1CNCC(O)COc1cccc2c(=O)c3ccccc3oc12.Cl (racemic)
3. Cc1cccc2c(=O)c3ccc(OCC(O)CNC(C)(C)C)cc3oc12.Cl (racemic)
4. COc1ccc(CCNCC(O)COc2cccc3c(=O)c4ccccc4oc23)cc1OC.Cl (racemic)
5. COc1ccccc1OCCNCC(O)COc1cccc2c(=O)c3ccccc3oc12.Cl (racemic)

Given back:
[59, 57.7, 55.5, 59.3, 57.3]

---

assay: Inhibition of voltage gated calcium channel in Wistar rat aorta assessed as relaxation of KCl-precontracted aortic rings by measuring reduction in calcium entry in presence of phentolamine
Provide the reported IC50 of each item.
Give bare numbers, in µM.

compound: COc1ccc(CCN(C)CCCC(C#N)(c2ccc(OC)c(OC)c2)C(C)C)cc1OC (configuration not stated)
IC50, µM: 0.0329

Asked: Which IC50 reading was recorded for the compound COc1ccc(CCNCC(O)COc2cccc3c(=O)c4ccccc4oc23)cc1OC.Cl (racemic) ?
Given back: 10.3

---

tested on: Rattus norvegicus; assay: Cardiotoxicity in Wistar rat assessed as effect on PQ interval time at 5 mg/kg, iv measured after 5 mins (reference value: 52 to 57 ms); format: toxicity, organism-based; details: in vivo
Mark fulfilled only for Time values smaller than 60 ms; exact matches and larger values are not fulfilled.

compound: COc1ccccc1CNCC(O)COc1cccc2c(=O)c3ccccc3oc12.Cl (racemic)
cat: not fulfilled

compound: Cl.O=c1c2ccccc2oc2cc(OCC(O)CN3CCN(c4ccccn4)CC3)ccc12 (racemic)
cat: fulfilled

compound: COc1ccc(CCNCC(O)COc2cccc3c(=O)c4ccccc4oc23)cc1OC.Cl (racemic)
cat: fulfilled

compound: COc1ccccc1OCCNCC(O)COc1cccc2c(=O)c3ccccc3oc12.Cl (racemic)
cat: fulfilled

compound: COc1ccccc1CCNCC(O)COc1cccc2c(=O)c3ccccc3oc12.Cl (racemic)
cat: fulfilled

Please examine the following record next.
Asked: Bench note: check whether Cl.O=c1c2ccccc2oc2c(OCC(O)CN3CCN(c4ccccn4)CC3)cccc12 (racemic) shows Time below 60 ms
Given back: fulfilled

---

test system: Rattus norvegicus; experiment: Cardiotoxicity in Wistar rat assessed as effect on QTC interval time at 5 mg/kg, iv measured after 15 mins (reference value: 136.7 to 146.2 ms); assay type: toxicity, organism-based; conditions: in vivo, 0.25 h
outcomeMeasure: Time (ms)
Numbers only, in ms.

Some solved cases for reference:
molecule: Cl.O=c1c2ccccc2oc2c(OCC(O)CN3CCN(c4ccccn4)CC3)cccc12 (racemic)
outcomeMeasure: Time
readoutValue: 144

molecule: COc1ccc(CCNCC(O)COc2cccc3c(=O)c4ccccc4oc23)cc1OC.Cl (racemic)
outcomeMeasure: Time
readoutValue: 132.7

Turning now to a further molecule:
Asked: Which Time reading was recorded for the molecule Cc1cccc2c(=O)c3ccc(OCC(O)CNC(C)(C)C)cc3oc12.Cl (racemic) ?
Given back: 138.9
